# Tested on: HOP-92
# TEST: NCI tumour cell line growth inhibition, 48 h
The source made the active and inactive calls. Rule as the data show it: active = GI50 up to about 1.1 µM and inactive = higher.
MEASURED QUANTITY: GI50

Example entries and their recorded answers appear below.
MOLECULE	GI50
Nc1c(/N=N/c2ccc(-c3ccc(/N=N/c4c(O)ccc5cc(S(=O)(=O)O)cc(S(=O)(=O)O)c45)cc3)cc2)c(S(=O)(=O)O)cc2cc(S(=O)(=O)O)c(/N=N/c3ccccc3)c(O)c12	> 69.7 µM (inactive)
C=CC(=O)NC(=N)NC#N	> 39.4 µM (inactive)
Cc1c2cccc-2c(OCCO)cc2c1[nH]c1ccccc12	2.75 µM (inactive)
CC(C)(C)OC(=O)Cc1ccc2c(ccn2Cc2ccccc2)c1	79.3 µM (inactive)
Cc1c(S(=O)(=O)N/C(N)=N/c2ccc(Cl)cc2)sc2ccc(Cl)cc12	22.6 µM (inactive)
COC(=O)c1onc(-c2c(OC)cc(OC)cc2OC)c1C(=O)OC	> 100 µM (inactive)
CCCCCCCCCC/C=C/C=O	> 100 µM (inactive)
CCc1nc2cc(F)ccc2[nH]c1=O	> 100 µM (inactive)

-- ask Which measured GI50 value corresponds to "Oc1cnnc2nc3ccccc3n12" ?
-- reply > 100 µM (inactive)

====

# Test system: SK-OV-3
# TEST: NCI tumour cell line growth inhibition, 48 h
Activity calls are given as the source filed them. Rule as the data show it: active = GI50 up to about 1.1 µM and inactive = higher.
The categories you may choose from are active, inactive

Previously resolved entries follow.
COMPOUND	ASSIGNED LABEL
c1ccc(CCN(Cc2nc3ccccc3[nH]2)Cc2nc3ccccc3[nH]2)cc1	inactive
Brc1ccc(-c2ccc(-c3ccc(Br)s3)s2)s1	inactive
CCCC(=O)OC[n+]1ccc2c(C)c3[nH]c4ccccc4c3c(C)c2c1	active
C=CCN1C(=O)/C(=C/c2ccc(C)cc2)NC1=S	inactive
COC(=O)NC1C(C)OC(OC2C/C=C(/C)C3C=CC4C(OC5CC(OC6CCC(OC7CC(O)C(OC8CCC(O)C(C)O8)C(C)O7)C(C)O6)C(OC(C)=O)C(C)O5)C(C)CC(C)C4C3(C)/C(O)=C3/C(=O)OC4(CC(C=O)=CC(O)C4/C=C\2C)C3=O)CC1(C)[N+](=O)[O-] (configuration not stated)	inactive

-- ask Tell me the recorded outcome of this test for "COCCOc1nc(-c2ccccc2)nc2ccccc12" .
-- reply inactive

-- ask Would you kindly repeat that for "Cc1nc2c(o1)C(=O)c1ccccc1/C2=N/c1ccc(N2CCOCC2)cc1" ?
-- reply inactive

-- ask Lookup "CC(C)(CN1CCCCC1)C(/C=C/c1ccc(Cl)c(Cl)c1)=N\NC(=O)N/N=C(/C=C/c1ccc(Cl)c(Cl)c1)C(C)(C)CN1CCCCC1"
-- reply inactive

-- ask Now the compound "CCOc1ccc(/N=N/c2ccc3oc(=O)c(C(=O)Nc4ccc(OC)cc4)cc3c2)cc1"
-- reply inactive

-- ask Same question, "CC1=NN(c2nc(N)nc(CN3CCOCC3)n2)C(C)(C)C1" this time
-- reply inactive

-- ask Again, but for "CN(C)c1ccc(C(=N/N=C2\C(=O)Nc3ccccc32)c2ccc(N(C)C)cc2)cc1"
-- reply inactive

-- ask Cc1ccc(C2(c3ccc(F)cc3)OC(=O)c3ccccc32)c(O)c1 (configuration not stated) , same question.
-- reply inactive

====

GI50 values for the molecules below.
# Tested on: NCI/ADR-RES
# TEST: NCI tumour cell line growth inhibition, 48 h
Calls of active or inactive are those of the source. Rule as the data show it: active = GI50 up to about 1.1 µM and inactive = higher. Where a SMILES comes first, the peptide text is derived from it. The star is where a group is joined. Cbz = O=C(OCc1ccccc1)*; Bn = c1ccc(C*)cc1

MOLECULE	GI50
COC(=O)C(Cc1ccc(O)cc1)NC(=O)C(COCc1ccccc1)NC(=O)OCc1ccccc1 (centres undefined) (Cbz-Ser(Bn)-Tyr-OMe; configuration not given here)	19.6 µM (inactive)

-- ask Record request: GI50 value, item CSC1=C(C(=O)N(COCC[Si](C)(C)C)c2ccccc2Br)CCC(C(C)(C)C)C1 (centres undefined)
-- reply 13.7 µM (inactive)

-- ask Would you kindly repeat that for COc1ccc2c(c1)CCC(CN1CCN(CCOC(c3ccccc3)c3ccccc3)CC1)C2O (centres undefined) ?
-- reply 13.8 µM (inactive)

-- ask Similarly, "Nc1nc(Cl)cc(NCC2(CO)COC2)n1" ?
-- reply > 100 µM (inactive)

====

# Test system: LOX IMVI
# TEST: NCI tumour cell line growth inhibition, 48 h
Activity calls are given as the source filed them. Cut-off read from the data, not from the text of the source: active = GI50 up to about 1.1 µM and inactive = higher.
# reported GI50; entries follow

Some solved entries appear below for comparison.
COMPOUND	MEASURED QUANTITY	OBSERVED
O=C(CC(C(=O)c1cccs1)c1cccs1)c1ccsc1 (configuration not stated)	GI50	10.2 µM (inactive)
O=C1c2ccc(O)cc2C(=O)c2ccc(O)cc21	GI50	58.1 µM (inactive)
CCCCCCCCCC/C=C/C=O	GI50	> 100 µM (inactive)
COc1ccc(OCc2ccc3nc(-c4ccccc4)c(Cl)nc3c2)cc1	GI50	84.5 µM (inactive)
CC1=CC(=O)/C(=C/NC(=S)NCCc2ccccc2)C(=O)O1	GI50	30.1 µM (inactive)
c1ccc(C(NCC2CCO2)(c2ccccc2)c2ccccc2)cc1 (configuration not stated)	GI50	28.6 µM (inactive)
Cc1ccc(S(=O)(=O)NCCSCCNS(=O)(=O)c2ccc(C)cc2)cc1	GI50	> 100 µM (inactive)
O=C(O)CN1C(=O)OC(c2ccccc2)C1=O (configuration not stated)	GI50	> 100 µM (inactive)

-- ask # get_value(readout='GI50', item= "CC(=O)Oc1c(Br)ccc2cc(C(Br)Br)c(C(=O)c3ccccc3)nc12" )
-- reply 23.9 µM (inactive)

-- ask Please answer likewise for "Ic1cccc(/C=C/CN2CCN(CCOC(c3ccccc3)c3ccccc3)CC2)c1"
-- reply 13.2 µM (inactive)

-- ask Follow-up entry: NCC(=O)NC(CO)C(=O)O (configuration not stated)
-- reply > 100 µM (inactive)

-- ask Here is the next compound: COc1nc(NC2OCC(OC(C)=O)C(OC(C)=O)C2OC(C)=O)c(/N=C\C=N\c2c(NC3OCC(OC(C)=O)C(OC(C)=O)C3OC(C)=O)nc(OC)n(C)c2=O)c(=O)n1C (configuration not stated)
-- reply > 100 µM (inactive)

-- ask "COc1ccc(/C=C/C(=O)c2c(-c3ccccc3)nn(C)c(=O)c2N2CCCCC2)cc1" , same question.
-- reply 14.7 µM (inactive)

-- ask // repeat for O=C(O)CCC1CCc2cccc(OCC(=O)O)c2C1=O (configuration not stated) and report
-- reply > 100 µM (inactive)

-- ask Likewise for "CC1=C(C(=O)Nc2cccc(Cl)c2)C(c2ccc([N+](=O)[O-])cc2)C(C(=O)Nc2cccc(Cl)c2)=C(C)N1" ?
-- reply 14.9 µM (inactive)

-- ask Try this compound too: CCc1cccc(CC)c1NC(=O)CC1SC(N)=NC1=O (configuration not stated)
-- reply > 100 µM (inactive)

-- ask Same read-out for "CC(=O)/C=C/c1ccc(C)cc1" ?
-- reply > 100 µM (inactive)

-- ask Follow-up item: CN1CCC2(c3ccccc3)CC(=O)/C(=C/c3ccc(Cl)c(Cl)c3)C1C2.[O-][Cl+3]([O-])([O-])O (configuration not stated)
-- reply 1.71 µM (inactive)

-- ask // same read-out, input: "COP(=O)(OC)/C(=C/c1c[nH]c2ccccc12)C(=O)O"
-- reply > 100 µM (inactive)

-- ask Let us now turn to "COC(=O)/C(C#N)=C1\NN=NN1CCCN1CCOCC1"
-- reply > 100 µM (inactive)

-- ask What about "CC(C)(C)c1cc(C(=O)/C=C/c2ccc(C(=O)O)cc2)cc(C(C)(C)C)c1" ?
-- reply 3.2 µM (inactive)

-- ask Quick one: NNC(=S)N/N=C(/C(=O)Nc1cc(Cl)ccc1Cl)C1C(=O)Nc2ccccc2[S+]1[O-] (configuration not stated)
-- reply > 100 µM (inactive)

-- ask Further, for "Nc1nc(Cl)cc(NCC2(CO)COC2)n1" ?
-- reply > 100 µM (inactive)

-- ask Same question for "CC1=Nc2nc3ccccc3n2C(C)(C)C1" please.
-- reply > 100 µM (inactive)

-- ask Thanks! And "CSC(=S)NN=C1CCCC1.CSC(=S)NN=C1CCCC1.[Zn+2]" ?
-- reply 10.7 µM (inactive)

-- ask Then what about the compound CC(=O)OCC(C)C1=C(O)C(=O)C2(C)C/C=C(/C)CC/C=C(\C)CCC(O)C(C)CCC12 (configuration not stated) ?
-- reply 18.1 µM (inactive)

-- ask Now give it for "O=C(CSCC(=O)N/N=C\c1cccc([N+](=O)[O-])c1)N/N=C\c1cccc([N+](=O)[O-])c1" too.
-- reply 53.1 µM (inactive)

-- ask How about this compound: "COc1c(C)c2nc3ccccc3nc2c2c(O)ccnc12"
-- reply > 100 µM (inactive)

-- ask Also CN(C(=O)c1ccccc1)C1CCCC(=O)CC1 (configuration not stated) ?
-- reply > 100 µM (inactive)
